- Tested on: H. flu
- Format: cell-based, H. influenza
- condition_set: H. flu
Listing of entries alongside the reported MIC (μg/mL) H. flu.
Give just the numeric value; µg/mL need not be written.

compound | system_under_test | value_measured
COC1C=COC2(C)Oc3c(C)c(O)c4c(=O)c(c5oc6cc(N7CC8CCCN(C)C8C7)cc(O)c6nc-5c4c3C2=O)NC(=O)C(C)=CC=CC(C)C(O)C(C)C(O)C(C)C(O)C1C (centres unmarked) [Compound 59] | H. flu | 0.12

Could you now consider this next compound?
Query: // map CO[C@H]1/C=C/O[C@@]2(C)Oc3c(C)c(O)c4c(=O)c(c5oc6cc(N7CCC(NC(=O)OCC(C)C)CC7)cc(O)c6nc-5c4c3C2=O)NC(=O)/C(C)=C\C=C\[C@H](C)[C@H](O)[C@@H](C)[C@@H](O)[C@@H](C)[C@H](OC(C)=O)[C@@H]1C [Compound 13] to recorded MIC (μg/mL) H. flu (system: H. flu)
Result: 2

###

- System: H. flu
- Type: cell-based, H. influenza
- condition_set: H. flu
Please use Y for MIC (μg/mL) H. flu under 0.2 µg/mL and N for everything else, ties included.

Below are worked cases with known answers.
compound | class_assignment
COC1C=COC2(C)Oc3c(C)c(O)c4c(=O)c(c5oc6cc(N7CCN(C(=O)C8CC8)CC7)cc(O)c6nc-5c4c3C2=O)NC(=O)C(C)=CC=CC(C)C(O)C(C)C(O)C(C)C(O)C1C (stereo not drawn) | N
COC1C=COC2(C)Oc3c(C)c(O)c4c(=O)c(c5oc6cc(N7CCC(F)(F)CC7)ccc6nc-5c4c3C2=O)NC(=O)C(C)=CC=CC(C)C(O)C(C)C(O)C(C)C(O)C1C (stereo not drawn) | N
COC1C=COC2(C)Oc3c(C)c(O)c4c(=O)c(c5oc6cc(N7CCC(CCO)CC7)cc(O)c6nc-5c4c3C2=O)NC(=O)C(C)=CC=CC(C)C(O)C(C)C(O)C(C)C(O)C1C (stereo not drawn) | Y

Query: Problem: For the compound CCOC(=O)NCC1CCN(c2cc(O)c3nc4c5c6c7c(C)c(O)c5c(=O)c(c-4oc3c2)NC(=O)C(C)=CC=CC(C)C(O)C(C)C(O)C(C)C(O)C(C)C(OC)C=COC(C)(O7)C6=O)CC1 (stereo not drawn) , is MIC (μg/mL) H. flu under 0.2 µg/mL?
Result: Y

Query: Do the same for COC1C=COC2(C)Oc3c(C)c(O)c4c(=O)c(c5oc6cc(N7CC8CCCN(C)C8C7)cc(O)c6nc-5c4c3C2=O)NC(=O)C(C)=CC=CC(C)C(O)C(C)C(O)C(C)C(OC(C)=O)C1C (stereo not drawn) please
Result: N

Query: Do the same for COC1C=COC2(C)Oc3c(C)c(O)c4c(=O)c(c5oc6cc(N7CCN(c8ccccc8)CC7)cc(O)c6nc-5c4c3C2=O)NC(=O)C(C)=CC=CC(C)C(O)C(C)C(O)C(C)C(O)C1C (stereo not drawn) please
Result: N

Query: Do the same for COC1C=COC2(C)Oc3c(C)c(O)c4c(=O)c(c5oc6cc(N7CC(C)NCC7C)cc(O)c6nc-5c4c3C2=O)NC(=O)C(C)=CC=CC(C)C(O)C(C)C(O)C(C)C(O)C1C (stereo not drawn) please
Result: N

Query: Do the same for COC1C=COC2(C)Oc3c(C)c(O)c4c(=O)c(c5oc6cc(N7CCC(c8ccccc8)CC7)cc(O)c6nc-5c4c3C2=O)NC(=O)C(C)=CC=CC(C)C(O)C(C)C(O)C(C)C(OC(C)=O)C1C (stereo not drawn) please
Result: N

Query: Do the same for CCOC(=O)C1CCN(c2cc(O)c3nc4c5c6c7c(C)c(O)c5c(=O)c(c-4oc3c2)NC(=O)/C(C)=C\C=C\[C@H](C)[C@H](O)[C@@H](C)[C@@H](O)[C@@H](C)[C@H](O)[C@H](C)[C@@H](OC)/C=C/O[C@@](C)(O7)C6=O)CC1 please
Result: Y
